assay: yeast display, Sf9 membrane polyspecificity reagent, FACS + sequencing; frameworks hold sequencing errors
measurementType: polyreactivity (PSR sort gate)

These solved cases illustrate the format of a correct answer.
polyreactivity (PSR sort gate) reported for this sequence "QVQLVESGGGLVQAGGSLRLSCAASGSIFVGNAMGWYRQAPAKERELVDTISWSGGSTYYADSVKGRFTISRDNAKNTVYVQMTSLKPEDTAVYYCAKTPYRRYRYGCYTYRTYDYWGHGTQVTVSS" : low polyreactivity

So, "QVQLVESGGGLVQAGGSLRLSCAASGRIFRLYAMGWYRQAPGKERELVAAIRASGGNTYYADSVKGRFTISRDNAKNTVYLQMNSLKPEDSAVYYCAADYWSRYYTVPEWYNYWGQGTQVTVSS" ? Its polyreactivity (PSR sort gate) was high polyreactivity

Query "QVQLVESGGGLVQAGGSLRLSCAASGRIIDRNAMGWYRQAPGKERELVAAISSSGSTNYADSVKGRFTISRDNAKNTVYLQMNSLKPEVTAVYYCAARWRSVLAAGTRPVSFDYWGQGTQVTVSS" yields polyreactivity (PSR sort gate) of low polyreactivity

Lab note: "QVQLVESGGGIVQAGGSLRLSCAASGRSFYRYARGWDRQAPGKERELVASITRSGITHYADSVKGRFTISRDNAKNPVYLQMISLKPEDTAVYYCNGRRGSPAPYDYWGQGTQVTVSS" gave polyreactivity (PSR sort gate) of high polyreactivity

Note to self: polyreactivity (PSR sort gate) recorded for "QVQLVESVGVLVQAGGSLPLSCAASGFTFQQYAMGWYRQAPGKERELVAAISWSGGSTNYADSVKGRFTISRDNAKNTVYLQMNSMKPEDTAVYYCAAYLRYYRKEVGYSSMNYWGQGTQVTVSS" was high polyreactivity

Return reported polyreactivity (PSR sort gate) values for all items listed beneath this line.
1. QVQLVESGGGLVQAGGSLRLICADSGRILGINAMGWYRQAPGKERELVAAISSGGSTYYADSVKGRFTISRDNAKNTVYLQMNSLKPEDTAVYYCNVGSYAGWSDHPRYGYWGQGTQVTVSS
2. QVQLVESGAGLVQAGASLRLSCAASGRIFPWNAMGWSRQEPGKERELVAAISFSAGRTYYADSVKGRFTISRDNAKNTVYLQMNSLKPEDTAVYYCNARIGSRWVWTGIICYEYWGKGTQVTVSS
3. QDQHVESGGGLVQAGGSLRLICAASGFTFSHYPMGSYRQAPGKERELVAAINWSGGSTDYADSVKGRFTLSRDNAMNTVYLQMNSLKPVDTAVYYCNTVSYAYWGYYYWGQGTQVTLSS
4. QVQLVESGGGLVQAGGSLRLSCASSGSIFRFNVMGWYRQAPGKERELVAAITRGDSTNYADSVKGRFTISRDNAKNTVYLQMNSLKPEDTAVYYCNARLYVPYRYDYWGQGTQVTVSS
5. QVQLVESGGGLVQAGGSLRLSCAASGFIFSLYAMGWYRQAPGKERELVAAISRSDDRTYYADSVKGRFTISRDDAKNTVYLQMNSLKPEDTAVYYCNVRYSYILIYEYWGQGTQVTVSS
6. QVQLVESGGGLVQAGGSLRLSCAASGFIFYRYAIGWYRQEPGKERELVAAITRSGRSTYYADSVKGRFTISRDNAKNTVYLQMNSLKAEDTAVYYCAVFGSYWWRGLSEDYWGQGTQVTVSS

1. high polyreactivity
2. low polyreactivity
3. high polyreactivity
4. low polyreactivity
5. low polyreactivity
6. high polyreactivity
